# measurement-notes: gradient 5% acetonitrile 3 min, to 50% in 2 min, to 85% in 15 min, held 3 min, 100 µL/min
# condition-summary: column: Zorbax Extend-C18 2.1 x 50 mm; eluents: water / acetonitrile, 0.1% formic acid
measurement-type: RP-LC retention time (s)

>>> value("Cc1ccc(F)cc1NC(=O)c1sc(-c2cn(C)c3ncccc23)nc1C")
983
>>> value("COc1ccc(-c2nc(Cn3ccnc3)no2)cc1")
599
>>> value("C1CCc2nc3c(nc2C1)CCCC3")
722
>>> value("CN1C(=O)c2cccn2CC1C(=O)NC1CCCCC1 (stereo unspecified)")
681
>>> value("CC1=C(C(=O)NCCCN2CCN(Cc3ccccc3)CC2)C2(CCCCC2)OC1=O")
627
>>> value("Cc1ccc(NC(=O)N2C[C@@H](F)C[C@H]2C(=O)N2CCc3ccccc3C2)cc1C")
817

---

# measurement-notes: gradient 5% acetonitrile 3 min, to 50% in 2 min, to 85% in 15 min, held 3 min, 100 µL/min
# condition-summary: column: Zorbax Extend-C18 2.1 x 50 mm; eluents: water / acetonitrile, 0.1% formic acid
measurement-type: RP-LC retention time (s)

Completed entries (count: 4):
>>> value("O=C(CN1CCN(Cc2cccc(Cl)c2)C1=O)N1CCN(c2ccccc2)CC1")
885
>>> value("Cc1c(CCC(=O)N[C@H](C)C(=O)O)c(=O)oc2c(C)c(O)ccc12")
618
>>> value("Cc1ccc(C)c(NC(=O)Cc2c(C(=O)O)c(C)cn2C)c1")
795
>>> value("O=C(NCc1ccccc1Cl)C1CCN(c2nnc(-c3ccccc3)o2)CC1")
847

[a] COc1ccc(-c2nc(N3CCC4(CC3)OCCO4)c3ccccc3n2)cc1
[b] CCc1ccccc1NC(=O)N1C[C@H](c2nc(-c3ccccc3)no2)[C@@H](C)C1
Ask: Hi there! Just curious which has the higher RP-LC retention time between a and b . Your answer should be the label attached to the chosen record.
Result: b
(b: 1040 s, a: 726 s)

---

# measurement-notes: gradient 5% acetonitrile 3 min, to 50% in 2 min, to 85% in 15 min, held 3 min, 100 µL/min
# condition-summary: column: Zorbax Extend-C18 2.1 x 50 mm; eluents: water / acetonitrile, 0.1% formic acid
measurement-type: RP-LC retention time (s)

>>> value("CC(=O)C1=C(C)N(CC2CCCO2)C(=O)C1(NC(=O)c1ccc(C(C)(C)C)cc1)C(F)(F)F (centres undefined)")
1050
>>> value("Cc1ncc2c(n1)CCN(C(=O)c1c(F)cccc1Cl)C2")
663
>>> value("CCOC(=O)CNC(=O)N1CCN(c2ccc(=O)n(-c3ccc(C)cc3)n2)CC1")
683

[A] Cc1ccnc(NC(=O)Cn2ccc3ccc(-c4nnc(C)o4)cc32)c1
[B] COc1cccc(N2CCN(S(=O)(=O)c3cc(-c4nc(C)cs4)cs3)CC2)c1
Ask: Hi there! Just curious which has the higher RP-LC retention time between A and B . Your answer should be the label attached to the chosen record.
Result: B
(B: 1070 s, A: 674 s)

[I] c1ccc(CNc2c(-c3ccc4c(c3)OCCO4)nc3ncccn23)cc1
[II] CCN1C(=O)C2(CCN(S(=O)(=O)c3ccc(C(C)C)cc3)CC2)c2ccccc21
Ask: Hi there! Just curious which has the higher RP-LC retention time between I and II . Your answer should be the label attached to the chosen record.
Result: II

[A] Cc1cccc(NC(=O)N2CCc3c(c(-c4nnc(-c5ccc(F)cc5)o4)nn3C)C2)c1C
[B] Nc1nnc(-c2cccnc2)s1
Ask: For A and B , which recorded RP-LC retention time is lower? Your answer should be the label attached to the chosen record.
Result: B

Hello, the source for this data is the METLIN SMRT retention time set (Domingo-Almenara et al. 2019), in case you need it.
